This section presents sequences with their documented SH2 binding enrichment values.
Biological target: c-Src SH2;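 further: peptide library displayed on the E. coli surface as eCPX fusions, selected cells deep-sequenced, score is each peptide's frequency after selection divided by its frequency in the input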
Assay: SH2 binding enrichment of the phosphorylated peptide, bacterial display (enrichment ratio); higher = better substrate or ligand; peptides without Tyr show the background
quantity_measured: SH2 binding enrichment

1. AIYRRYSKFFD [SH3PXD2B_Y45] = 0.511
2. SYSGEYGGGGG [ZG16_Y30] = 0.495
3. PADQAYSWFQH [NDST1_Y711_R709Q_YF] = 0.891
4. SGPRRYTMAAL [TTR_Y125_I127M] = 0.487

====

Molecular target: Fyn (UniProt P06241)
Sequence (P06241 whole entry, looked up): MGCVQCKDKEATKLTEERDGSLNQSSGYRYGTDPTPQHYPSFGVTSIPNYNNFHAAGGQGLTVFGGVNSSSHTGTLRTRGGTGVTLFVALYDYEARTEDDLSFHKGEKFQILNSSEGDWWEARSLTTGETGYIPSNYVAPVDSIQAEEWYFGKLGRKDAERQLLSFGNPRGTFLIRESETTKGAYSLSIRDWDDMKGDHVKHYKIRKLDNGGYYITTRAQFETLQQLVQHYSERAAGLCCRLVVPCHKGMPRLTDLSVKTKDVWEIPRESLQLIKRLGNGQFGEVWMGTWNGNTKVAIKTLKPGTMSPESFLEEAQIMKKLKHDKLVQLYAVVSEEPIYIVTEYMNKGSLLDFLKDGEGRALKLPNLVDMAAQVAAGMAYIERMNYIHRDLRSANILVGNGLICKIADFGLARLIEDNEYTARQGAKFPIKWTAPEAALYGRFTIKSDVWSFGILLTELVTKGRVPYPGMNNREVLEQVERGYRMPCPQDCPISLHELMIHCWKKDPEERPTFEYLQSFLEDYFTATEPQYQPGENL
Assay: phosphorylation enrichment, bacterial display (enrichment ratio); higher = better substrate or ligand; peptides without Tyr show the background
quantity_measured: phosphorylation enrichment

1. SCTFTCLLGDR [ETHE1_Y38_Y38C] = 0.458
2. WFISFYPQVIM [CTNS_Y143_S139F] = 0.413
3. GPSTPYTKSKC [SMARCC2_Y324_R329C] = 0.403
4. LVPAWYIGFLC [KCNQ2_Y237_T234P] = 0.487
5. PLDGEYFTLQV [TP53_Y327_I332V] = 5.07
6. GIFEDYVEGLR [MYL6_Y89_T85I_YF] = 0.7
7. PTTKTYFPRFD [HBA1_Y43_H46R] = 0.319
8. MKKKTYAMGGG [GAN_Y424_I423T] = 0.428
9. PDGVEYLKNNP [GRIN3A_Y831_D835N] = 0.543
10. PMFTKYGNSLL [RPGRIP1L_Y196] = 0.558
11. AEQDWYHGAIP [FER_Y461] = 0.846
12. HEHKGYNANFC [TGFB2_Y341_P338H] = 0.659
13. LNLDTYQKRLR [PLA2G2D_Y126_R121L] = 0.672
14. PSGPMYRGAVP [ASAH1_Y43_T42M] = 0.467
15. FPHVIYARLWR [SMAD4_Y95] = 5.08
16. IDGLEYLHSQG [STK11_Y166] = 0.619
17. EILTQYEAMAS [GFAP_Y242_R239L] = 0.529
18. RELGEYPLAEY [ALDH1A3_Y492_A493P] = 0.582
19. SDVNKYSTAFG [GJB3_Y16_G12D] = 0.42
20. KMKGEYYRYLA [YWHAG_Y130_D129E] = 0.607
21. TPGPNYRPGFN [USH2A_Y463_YF] = 0.536
22. ADYPDYKYRPR [SOX11_Y116] = 0.389
23. DDLEVYLKHPL [SACS_Y3477_L3481P] = 1.26

====

Target: FGFR1 (UniProt P11362)
Sequence (P11362 whole entry, looked up): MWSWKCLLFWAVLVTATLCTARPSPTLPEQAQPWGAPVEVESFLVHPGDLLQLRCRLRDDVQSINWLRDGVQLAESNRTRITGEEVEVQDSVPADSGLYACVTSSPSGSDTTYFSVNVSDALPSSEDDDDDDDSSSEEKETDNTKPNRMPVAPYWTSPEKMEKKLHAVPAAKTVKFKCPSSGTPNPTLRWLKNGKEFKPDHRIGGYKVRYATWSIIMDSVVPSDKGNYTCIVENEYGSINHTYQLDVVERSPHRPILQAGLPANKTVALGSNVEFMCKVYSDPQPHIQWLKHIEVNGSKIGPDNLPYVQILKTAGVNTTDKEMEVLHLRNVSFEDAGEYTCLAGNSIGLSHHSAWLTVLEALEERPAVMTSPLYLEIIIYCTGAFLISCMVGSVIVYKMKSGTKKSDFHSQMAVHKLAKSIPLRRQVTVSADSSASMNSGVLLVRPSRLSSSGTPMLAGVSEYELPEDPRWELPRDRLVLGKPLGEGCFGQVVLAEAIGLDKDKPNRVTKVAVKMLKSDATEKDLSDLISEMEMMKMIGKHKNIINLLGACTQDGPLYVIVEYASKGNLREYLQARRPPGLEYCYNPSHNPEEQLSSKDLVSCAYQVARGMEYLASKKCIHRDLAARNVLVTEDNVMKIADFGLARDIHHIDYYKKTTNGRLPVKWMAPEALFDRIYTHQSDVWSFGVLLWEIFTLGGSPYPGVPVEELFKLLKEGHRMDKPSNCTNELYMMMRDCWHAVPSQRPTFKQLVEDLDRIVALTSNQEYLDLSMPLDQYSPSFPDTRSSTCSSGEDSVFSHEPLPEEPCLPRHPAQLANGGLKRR
Assay: phosphorylation enrichment, bacterial display (enrichment ratio); higher = better substrate or ligand; peptides without Tyr show the background
Kindly return 1 (yes) if reported phosphorylation enrichment is no lower than 0.7; return 0 (no) if it is lower.

1) ATDLAYYLVRK [ASL_Y375] = 1 (yes)
2) SGDVQYRSSVR [FREM2_Y2158_T2153S] = 0 (no)
3) LYSNAYLSDLA [ALDH1A1_Y119_N121S] = 1 (yes)
4) FLTQHYDAKPQ [ANG_Y38] = 1 (yes)
5) QAEELYFGKMG [YES1_Y159_W158L] = 1 (yes)
6) IIGNGYYFHVF [MYBPC3_Y1135_R1138H] = 0 (no)
7) AKNKDYMSFIR [GNE_Y197_I200F] = 0 (no)
8) NFFDTYIKTCL [IQGAP2_Y1445_YF] = 0 (no)
9) RLLRGYNQSAF [HLA-C_Y137_D138N_YF] = 0 (no)
10) TFTVSYLPDMS [FLNC_Y1602_YF] = 0 (no)
11) LTNDRYVATLT [IL6ST_Y396_L397V] = 0 (no)
12) FSDPDYLAAVD [GLB1_Y154_S149F] = 0 (no)
13) KPLMPCMRFSR [SMARCE1_Y73_Y73C_YF] = 0 (no)
14) ECKLRYSRKEG [PTPN11_Y263_L262R] = 0 (no)
15) KLQKFYRQNPD [EHHADH_Y683_YF] = 0 (no)
16) SAAAIYTVRHP [PMP22_Y117] = 0 (no)
17) AGIVDYNIIGW [MYH7_Y588] = 1 (yes)
18) VKANTYEKYWP [GATM_Y100] = 0 (no)
19) EVTQDYGLDPK [FH_Y110_N107T] = 0 (no)
20) DERQPYAHMNG [IGF1R_Y1346] = 0 (no)
21) IGGHAYGDQFR [IDH1_Y135_R132G_YF] = 0 (no)
22) CDDGKYVYVVT [RPS6KA3_Y488_Y483C] = 1 (yes)
23) LHQSTYQCFDV [SLC7A14_Y693_R695C_YF] = 1 (yes)
24) QTLEAYIRWNK [SPAST_Y604] = 0 (no)
25) CTLLPYFSAPV [DGKE_Y269_R273P_YF] = 0 (no)
26) HFGNNYTDVLQ [MACC1_Y803_R804T_YF] = 0 (no)
27) FSALDYKIFYY [WDPCP_Y210_L205F] = 1 (yes)
28) ETAENYLGFTA [HSPA9_Y181_H184Y_YF] = 0 (no)
29) IDSTPYGQWYE [RPS8_Y109_R110G] = 1 (yes)
30) INMKEYCKKDY [NTN1_Y490_K489E] = 0 (no)
31) VFLGAYDCFLP [SLC22A5_Y486_R488C_YF] = 0 (no)
